- Study Target: Delta-type opioid receptor (Homo sapiens, UniProt P41143)
- Sequence (P41143 whole entry): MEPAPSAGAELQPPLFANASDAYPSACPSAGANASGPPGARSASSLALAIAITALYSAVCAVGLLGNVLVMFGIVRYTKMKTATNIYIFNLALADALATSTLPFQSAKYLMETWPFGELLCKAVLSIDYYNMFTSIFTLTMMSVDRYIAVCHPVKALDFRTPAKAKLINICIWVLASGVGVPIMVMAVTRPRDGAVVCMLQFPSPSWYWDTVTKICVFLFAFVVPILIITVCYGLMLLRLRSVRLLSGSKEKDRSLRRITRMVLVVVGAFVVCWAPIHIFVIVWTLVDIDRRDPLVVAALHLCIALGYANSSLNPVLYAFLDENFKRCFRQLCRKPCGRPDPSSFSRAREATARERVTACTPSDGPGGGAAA
- Measurement Notes: Displacement of [3H]bremazocine from cloned human delta opioid receptor expressed in CHO cells
pKi: −log10 of the molar value.
Give fulfilled when the value for pKi is at least 6. Give not fulfilled when it is less.

The examples below pair each entry with its known result.
[
  {
    "Molecule Smiles": "NC(=O)c1ccc(Oc2ccc3c(c2)CN(CCc2ccccc2)CC3)nc1",
    "Answer Label": "not fulfilled"
  },
  {
    "Molecule Smiles": "CCCCN1CCCc2cc(Oc3ccc(C(N)=O)cn3)ccc2C1",
    "Answer Label": "fulfilled"
  },
  {
    "Molecule Smiles": "NC(=O)c1ccc(Oc2ccc3c(c2)CCCN(CCCC2CCCCC2)C3)nc1",
    "Answer Label": "fulfilled"
  },
  {
    "Molecule Smiles": "CCC(CC)CN1CCCc2cc(Oc3ccc(C(N)=O)cn3)ccc2C1",
    "Answer Label": "not fulfilled"
  },
  {
    "Molecule Smiles": "NC(=O)c1ccc(Oc2ccc3c(c2)CCCN(CCc2ccccc2)C3)nc1",
    "Answer Label": "fulfilled"
  }
]

Has CCCCCCN1CCCc2cc(Oc3ccc(C(N)=O)cn3)ccc2C1 a recorded pKi greater than or equal to 6?
fulfilled

Kindly determine if pKi recorded for NC(=O)c1ccc(Oc2ccc3c(c2)CN(Cc2ccccc2)CC3)nc1 is above or exactly 6.
not fulfilled

Reported pKi reaches at least 6 for CC(C)CCCCN1CCCc2cc(Oc3ccc(C(N)=O)cn3)ccc2C1 ?
fulfilled

Does pKi meet or surpass 6 for CC(C)(C)CCN1CCCc2cc(Oc3ccc(C(N)=O)cn3)ccc2C1 ?
fulfilled

Form field: pKi at least 6? Entry: NC(=O)c1ccc(Oc2ccc3c(c2)CCCN(CCCC(F)(F)F)C3)nc1
fulfilled

Can NC(=O)c1ccc(Oc2ccc3c(c2)CN(Cc2ccccc2)C3)nc1 be said to have pKi at or above 6?
not fulfilled

###

Can you tell me Ki for the items I'm about to list?
- Study Target: Mu-type opioid receptor (Homo sapiens)
- Sequence (P35372 whole entry): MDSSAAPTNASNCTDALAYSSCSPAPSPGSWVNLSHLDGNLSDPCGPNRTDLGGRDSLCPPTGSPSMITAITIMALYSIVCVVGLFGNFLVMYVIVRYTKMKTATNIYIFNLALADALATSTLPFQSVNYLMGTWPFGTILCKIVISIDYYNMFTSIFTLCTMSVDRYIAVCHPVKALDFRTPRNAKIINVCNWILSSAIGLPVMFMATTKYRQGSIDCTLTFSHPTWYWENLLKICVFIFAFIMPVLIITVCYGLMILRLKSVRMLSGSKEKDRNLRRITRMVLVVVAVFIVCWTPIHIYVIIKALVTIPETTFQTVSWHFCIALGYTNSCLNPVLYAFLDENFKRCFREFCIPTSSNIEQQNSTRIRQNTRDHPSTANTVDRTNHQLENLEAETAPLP
Give bare numbers, in nM.

[
  {
    "Molecule Smiles": "CC(C)CCCCN1CCCc2cc(Oc3ccc(C(N)=O)cn3)ccc2C1",
    "Ki [nM]": 11.9
  }
]

Provide Ki values for the following items, in order.
1. NC(=O)c1ccc(Oc2ccc3c(c2)CCCN(CCCN2CCOCC2)C3)nc1
2. NC(=O)c1ccc(Oc2ccc3c(c2)CCN(Cc2ccccc2)CC3)nc1
3. NC(=O)c1ccc(Oc2ccc3c(c2)CCN(CCc2ccccc2)C3)nc1
4. NC(=O)c1ccc(Oc2ccc3c(c2)CCCN(CCc2ccccc2)C3)nc1
5. NC(=O)c1ccc(Oc2ccc3c(c2)CCN(CCCc2ccccc2)C3)nc1

[216, 406, 16, 10.1, 185]

Your task in this section: give Ki for each listed record.
1. NC(=O)c1ccc(Oc2ccc3c(c2)CCCN(CCCC(F)(F)F)C3)nc1
2. NC(=O)c1ccc(Oc2ccc(CCN3CCc4ccccc4C3)cc2)nc1
3. NC(=O)c1ccc(Oc2ccc3c(c2)CCN(CCc2ccccc2)CC3)nc1
4. CC(C)CCCN1CCCc2cc(Oc3ccc(C(N)=O)cn3)ccc2C1
5. CCCCCN1CCCc2cc(Oc3ccc(C(N)=O)cn3)ccc2C1
6. NC(=O)c1ccc(Oc2ccc3c(c2)CCN(Cc2ccccc2)C3)nc1

[24.4, 5.05, 91.5, 7.55, 11.9, 179]

###

Exercise: for every item that follows, state its recorded Ki.
- Study Target: Delta-type opioid receptor (Homo sapiens, UniProt P41143)
- Measurement Notes: Displacement of [3H]bremazocine from cloned human delta opioid receptor expressed in CHO cells
Enter the number, and then the unit.

[
  {
    "Molecule Smiles": "NC(=O)c1ccc(Oc2ccc(CCN3CCc4ccccc4C3)cc2)nc1",
    "Ki": "144 nM"
  }
]

// each listed molecule needs a value for Ki
1. NC(=O)c1ccc(Oc2ccc3c(c2)CCN(Cc2ccccc2)CC3)nc1
2. CC(C)CCCN1CCCc2cc(Oc3ccc(C(N)=O)cn3)ccc2C1
3. NC(=O)c1ccc(Oc2ccc3c(c2)CCN(CCc2ccccc2)C3)nc1

2710 nM
108 nM
180 nM

Each molecule below has a recorded value; state its Ki.
1. NC(=O)c1ccc(Oc2ccc3c(c2)CCN(Cc2ccccc2)C3)nc1
2. CCCCCN1CCCc2cc(Oc3ccc(C(N)=O)cn3)ccc2C1
3. NC(=O)c1ccc(Oc2ccc3c(c2)CCCN(CCCN2CCOCC2)C3)nc1

2350 nM
187 nM
2580 nM

For each of the molecules below, note its Ki.
1. CC(C)CCN1CCCc2cc(Oc3ccc(C(N)=O)cn3)ccc2C1
2. NC(=O)c1ccc(Oc2ccc3c(c2)CN(CCc2ccccc2)C3)nc1
3. NC(=O)c1ccc(Oc2ccc3c(c2)CCCN(CCN2CCOCC2)C3)nc1
4. NC(=O)c1ccc(Oc2ccc3c(c2)CCN(CCCc2ccccc2)C3)nc1

232 nM
2270 nM
1910 nM
2140 nM

###

Here's what we have: log10 Ki numbers for Kappa-type opioid receptor (Homo sapiens).
Hello, just confirming the data are log10 of Ki with units of nM.

Sample answers from the record:
[
  {
    "Molecule Smiles": "NC(=O)c1ccc(Oc2ccc3c(c2)CCN(CCc2ccccc2)C3)nc1",
    "Study Target": "Kappa-type opioid receptor (Homo sapiens)",
    "log10 Ki": 3.09
  },
  {
    "Molecule Smiles": "NC(=O)c1ccc(Oc2ccc(CCN3CCc4ccccc4C3)cc2)nc1",
    "Study Target": "Kappa-type opioid receptor (Homo sapiens)",
    "log10 Ki": 2.27
  },
  {
    "Molecule Smiles": "CCCCCCN1CCCc2cc(Oc3ccc(C(N)=O)cn3)ccc2C1",
    "Study Target": "Kappa-type opioid receptor (Homo sapiens)",
    "log10 Ki": 2.06
  },
  {
    "Molecule Smiles": "NC(=O)c1ccc(Oc2ccc3c(c2)CCN(CCCc2ccccc2)C3)nc1",
    "Study Target": "Kappa-type opioid receptor (Homo sapiens)",
    "log10 Ki": 2.75
  },
  {
    "Molecule Smiles": "NC(=O)c1ccc(Oc2ccc3c(c2)CN(Cc2ccccc2)CC3)nc1",
    "Study Target": "Kappa-type opioid receptor (Homo sapiens)",
    "log10 Ki": 3.39
  }
]

For every item below, please supply its log10 Ki.
1. CC(C)CCCN1CCCc2cc(Oc3ccc(C(N)=O)cn3)ccc2C1
2. NC(=O)c1ccc(Oc2ccc3c(c2)CCCN(CCc2ccccc2)C3)nc1
3. NC(=O)c1ccc(Oc2ccc3c(c2)CN(CCc2ccccc2)CC3)nc1

1: 2.03; 2: 2.56; 3: 3.56

###

This document collects Ki values reported for Kappa-type opioid receptor (Homo sapiens, UniProt P41145).

Example compounds with recorded Ki:
[
  {
    "Molecule Smiles": "NC(=O)c1ccc(Oc2ccc3c(c2)CCN(CCc2ccccc2)CC3)nc1",
    "Ki": "> 4900 nM"
  },
  {
    "Molecule Smiles": "NC(=O)c1ccc(Oc2ccc3c(c2)CN(CCc2ccccc2)C3)nc1",
    "Ki": "> 5000 nM"
  },
  {
    "Molecule Smiles": "NC(=O)c1ccc(Oc2ccc3c(c2)CN(Cc2ccccc2)C3)nc1",
    "Ki": "> 5000 nM"
  },
  {
    "Molecule Smiles": "CC(C)CCCCN1CCCc2cc(Oc3ccc(C(N)=O)cn3)ccc2C1",
    "Ki": "319 nM"
  },
  {
    "Molecule Smiles": "CCC(CC)CN1CCCc2cc(Oc3ccc(C(N)=O)cn3)ccc2C1",
    "Ki": "61.6 nM"
  }
]

For each listed entry, give its Ki.
1. CCCCCN1CCCc2cc(Oc3ccc(C(N)=O)cn3)ccc2C1
2. CC(C)CCN1CCCc2cc(Oc3ccc(C(N)=O)cn3)ccc2C1

1: 106 nM; 2: 78.1 nM
